Reference source for all entries: paper PMC4914250

# System: mutp53 in SK3 cell extract
# measurement.description: ELISA of mutp53 conformation, SK3;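 further: 0 means no effect and 6 means as or more effective than positive control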
# Type: biochemical, human
# condition.summary: score 0-6 compared to positive control
readout.name: Conform SK3
// no unit string in output, number only

See these solved cases before continuing.
substance	measured.target	assay.value
LRCLLLLIGRVG [pCAP-24]	mutp53 in SK3 cell extract	2
SFILFIRRGRLG [pCAP-60]	mutp53 in SK3 cell extract	2
myr-RRKILFIRLMHNKH [pCAP-227, myristoylated peptide, similarity to GAS2]	mutp53 in SK3 cell extract	1
HHPWTHHQRWS [pCAP-20]	mutp53 in SK3 cell extract	4
FPGHTIH [pCAP-100]	mutp53 in SK3 cell extract	3

(Q) What Conform SK3 value was documented for this substance, HSSHHHPVHSWN [pCAP-83] ?
(A) 2

(Q) What Conform SK3 value was documented for this substance, WNHHHSTPHPAHRRRRRR [pCAP-97R, pCAP-97 with poly arginine tail] ?
(A) 3

----------
# System: H1299 cells expressing mutp53^R175H
# measurement.description: Crystal violet viability assay, H1299
# Assay type: cell-based
# condition.summary: score 0-6 compared to positive control, 48 h
readout.name: Viability H1299
// no unit string in output, number only

substance	Viability H1299
WNHHHSTPHPAH [pCAP-97]	3
YRRLLIGMMWRRRRRRRRR [pCAP-68]	3
IRILMFLIGCGRRRRRRRRR [pCAP-23R, pCAP-23 with poly arginine tail]	3
LPNPPERHH [pCAP-16]	3
myr-RRIRDPRILLLHFD [pCAP-325]	5

--- query ---
(Q) What Viability H1299 value was documented for this substance, YPTQGHLR [pCAP-36] ?
(A) 2

----------
# System: mutp53 in SK3 cell extract
# measurement.description: ELISA of mutp53 conformation, SK3;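 further: 0 means no effect and 6 means as or more effective than positive control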
# Assay type: biochemical, human
# condition.summary: score 0-6 compared to positive control
Quick reference: Conform SK3 of the listed items.
// no unit string in output, number only

See these solved cases before continuing.
substance	Conform SK3
WNHHHSTPHPAH [pCAP-97]	3
YRRLLIGMMWRRRRRRRRR [pCAP-68]	5
myr-RRKHNKHRPEPDSDER [pCAP-221]	3
myr-RRIRDPRILLLHFD [pCAP-325]	3
SFILFIRRGRLGRRRRRRRRR [pCAP-60R, pCAP-60 with poly arginine tail]	3

(Q) What Conform SK3 value was documented for this substance, LRCLLLLIGRVGRRRRRRRR [pCAP-24R, pCAP-24 with poly arginine tail] ?
(A) 2

(Q) What Conform SK3 value was documented for this substance, YPTQGHLR [pCAP-36] ?
(A) 3

(Q) What Conform SK3 value was documented for this substance, myr-PRVLPSPHTIHPSQYP [pCAP-229, myristoylated peptide, similarity to HIPK2] ?
(A) 2

(Q) What Conform SK3 value was documented for this substance, DEDAKFRIRILMRR [pCAP-202, peptide with similarity to APAF1] ?
(A) 2

----------
# Tested on: H1299 cells expressing mutp53^R175H
# measurement.description: Crystal violet viability assay, H1299
# Type: cell-based
# condition.summary: score 0-6 compared to positive control, 48 h
readout.name: Viability H1299
// no unit string in output, number only

See these solved cases before continuing.
substance	measured.target	Viability H1299
FPGHTIH [pCAP-100]	H1299 cells expressing mutp53^R175H	3
DEDAKFRIRILMRR [pCAP-202, peptide with similarity to APAF1]	H1299 cells expressing mutp53^R175H	3
HANLHHT [pCAP-87]	H1299 cells expressing mutp53^R175H	3
LRCLLLLIGRVGRRRRRRRR [pCAP-24R, pCAP-24 with poly arginine tail]	H1299 cells expressing mutp53^R175H	4

(Q) What Viability H1299 value was documented for this substance, IRILMFLIGCGR [pCAP-23] ?
(A) 3
